The reported measurements were obtained from PubChem BioAssay AID1468.

Molecular target: Microtubule-associated protein tau (Homo sapiens) (UniProt P10636)
Sequence (P10636 561-689 P618L limits assumed): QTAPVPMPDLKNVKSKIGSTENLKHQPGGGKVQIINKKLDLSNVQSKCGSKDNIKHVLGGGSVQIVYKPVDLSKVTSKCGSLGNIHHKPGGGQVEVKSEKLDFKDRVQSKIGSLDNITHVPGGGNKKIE
Assay: qHTS for Inhibitors of Tau Fibril Formation, Fluorescence Polarization; further: nearly all actives have a fitted effect of over 55% in size
Conditions: K18 P301L tau heparin fibrillization, Alexa594 FP, 6 h; series mostly up to 57.7 µM
In all, about 280,000 compounds went through this assay and about 1,100 (0.39%) were called active. Not shown: some 7% with an inconclusive outcome. The call rests on the fitted dose curve; in most records, active means well fitted inhibition curve with a large enough effect; inconclusive means small, poorly fitted or top-dose-only effect, or effect the other way; inactive means flat fitted curve, though single readings scatter. The sample holds actives, similar compounds and a random draw of the others, so the mix is not that of the screen.
Outcome codes: active, inactive

CCc1ccccc1NC(=O)N1CCC2(CC1)Oc1ccccc1C(=O)N2Cc1ccccc1F : inactive
COc1ccc(-c2cn3nc(N4CCCC(C(=O)NCCCOC(C)C)C4)sc3n2)cc1 (configuration not stated) : inactive
O=c1[nH]c2ccccc2n2c(-c3ccccc3)nnc12 : active
Cc1cccc(NC(=O)Cn2nc(-c3ccc(Cl)cc3)c3ccccc3c2=O)c1 : inactive
COc1ccc(/C=N/S(=O)(=O)c2ccccc2)cc1OC : inactive
CC1CCCCN1CC(=O)N1CCCc2c1c(=O)oc1ccc(OCc3ccccc3)cc21 (configuration not stated) : inactive
COc1ccc(C(=O)Nc2ccccc2C(=O)N/N=C/c2ccc(O)c(OC)c2)cc1 : inactive
Cc1cccc(CC(=O)N2CC(=O)Nc3ccc(F)cc3C2c2ccccc2)c1 (configuration not stated) : inactive
CCOc1ccccc1NC(=O)Cn1c(=O)n(Cc2ccco2)c(=O)c2sc3ccccc3c21 : inactive
COC(=O)c1sccc1S(=O)(=O)N(CC(=O)Nc1ccc(C)c(F)c1)c1ccc(C)c(C)c1 : inactive
CCN(CC)CCNC(=O)c1cc2c(=O)oc3ccc(C)cc3c2s1 : inactive
CCN(CC)c1ccc2oc(=O)c(C)nc2c1 : active
CC(C)C[C@H](NC(=O)Nc1cccc(C(F)(F)F)c1)C(=O)O : inactive
Cc1ccc(-c2nc3ccccc3[nH]c2=O)cc1 : inactive
Cc1c(C(=O)NCc2ccccc2Br)oc2ccc3c(c12)C(=O)CC(C)(C)O3 : inactive
O=C(Cn1c(=O)n(Cc2ccccc2)c(=O)c2sc3ccccc3c21)Nc1ccccc1F : active
CCN(CC)c1ccc(/C=N/Nc2nc(C)cc(C)n2)c(O)c1 : inactive
CCN(CC)c1ccc2c(Nc3ccccc3)c(C=O)c(=O)oc2c1 : inactive
CCN(CC(=O)NCCc1ccccc1)S(=O)(=O)c1ccccc1 : inactive
O=C(Cn1c(-c2cccs2)cc2ccccc21)NCCc1ccc(Cl)cc1 : inactive
COc1ccc(N(CC(=O)NCCc2ccc(Cl)cc2)S(=O)(=O)c2c(C)nn(C)c2C)cc1 : inactive
CCOC(=O)c1cnc2[nH]c3ccccc3n2c1=O : inactive

====

Target: Microtubule-associated protein tau (Homo sapiens) (UniProt P10636)
Experiment: qHTS for Inhibitors of Tau Fibril Formation, Fluorescence Polarization; further: nearly all actives have a fitted effect of over 55% in size
Conditions: K18 P301L tau heparin fibrillization, Alexa594 FP, 6 h; series mostly up to 57.7 µM
The whole screen tested about 280,000 compounds, of which about 1,100 (0.39%) were called active. Inconclusive results (about 7%) are left out. Calls follow the shape of the dose curve; as a rule, active = well fitted inhibition curve with a large enough effect; inconclusive = small, poorly fitted or top-dose-only effect, or effect the other way; inactive = flat fitted curve, though single readings scatter. This is one part of a sample in which actives are shown more often than they occur.
Outcome codes: active, inactive

COc1ccc(-c2cc(C(F)(F)F)n3nc(-c4ccccc4)cc3n2)cc1OC : inactive
NS(=O)(=O)c1ccc(CCNC(=O)Nc2ccc(Cl)cc2)cc1 : inactive
CC(C)(C)OC(=O)N1CCC(c2c(C(=O)Nc3ccc4c(c3)OCO4)cnn2-c2ccccc2)CC1 : inactive
c1ccc(-n2nnnc2N2CCOCC2)cc1 : inactive
Cc1cccc(N2CCN(C(=O)c3cnc(N4CCCC4)nc3C)CC2)c1C : inactive
CCc1cccc(NC(=O)CSc2nccn2C)c1 : inactive
Cn1ccc(NC(=O)Nc2ccc(Cl)cc2)n1 : inactive
CCc1ccc(CN(Cc2ccco2)C(=O)COc2ccc(Cl)c(C)c2)cc1 : inactive
CCOc1ccccc1CNCc1c(C(=O)O)c(C)n(Cc2ccc(C)cc2)c1C : inactive
CC(C)S(=O)(=O)c1csc(NC(=O)Nc2ccc(Cl)cc2)c1Cl : active
COc1ccc(OC)c2sc(N3CCN(C(=O)C4COc5ccccc5O4)CC3)nc12 (stereo unspecified) : inactive
